Assay: in vitro
Conditions: PAMPA, pH 7.4
Procedure: A fundamental requirement for the effectiveness of anti-AD drugs is their capability to traverse the BBB (blood–brain barrier). […] Briefly, synthesized compounds were first dissolved in DMSO (10 mM) that was further diluted by the addition of phosphate buffer (100 M) having a pH of 7.4. […] A UV plate reader was employed for the measurements of the drug concentration in donor, acceptor, and reference wells. The permeability (Pe) of the compounds was measured by using the following formula. […]
For each record, write down the corresponding Papp at 20 h.
Lab note: write values as number then unit, every time.

Worked examples, 2 molecules total:
MOLECULE | REPORTED_VALUE
O=C1c2ccccc2C(=O)N1Cc1ccc(-c2ccc(C(F)(F)F)cc2)cc1 | 18.7 ×10⁻⁶ cm/s
O=C1c2ccccc2C(=O)N1Cc1ccc(-c2cccc(C(F)(F)F)c2)cc1 | 18.3 ×10⁻⁶ cm/s

Next molecule, please.
Fill in the blank: the reported Papp at 20 h of C[C@H](NCc1ccc(OCc2cccc(F)c2)cc1)C(N)=O [safinamide, reference compound] is ____. 7.56 ×10⁻⁶ cm/s

---

target: Electrophorus electricus AChE (Electrophorus electricus, UniProt O42275); assay: biochemical; type: biochemical; settings: selectivity index
Sequence (O42275 24-633): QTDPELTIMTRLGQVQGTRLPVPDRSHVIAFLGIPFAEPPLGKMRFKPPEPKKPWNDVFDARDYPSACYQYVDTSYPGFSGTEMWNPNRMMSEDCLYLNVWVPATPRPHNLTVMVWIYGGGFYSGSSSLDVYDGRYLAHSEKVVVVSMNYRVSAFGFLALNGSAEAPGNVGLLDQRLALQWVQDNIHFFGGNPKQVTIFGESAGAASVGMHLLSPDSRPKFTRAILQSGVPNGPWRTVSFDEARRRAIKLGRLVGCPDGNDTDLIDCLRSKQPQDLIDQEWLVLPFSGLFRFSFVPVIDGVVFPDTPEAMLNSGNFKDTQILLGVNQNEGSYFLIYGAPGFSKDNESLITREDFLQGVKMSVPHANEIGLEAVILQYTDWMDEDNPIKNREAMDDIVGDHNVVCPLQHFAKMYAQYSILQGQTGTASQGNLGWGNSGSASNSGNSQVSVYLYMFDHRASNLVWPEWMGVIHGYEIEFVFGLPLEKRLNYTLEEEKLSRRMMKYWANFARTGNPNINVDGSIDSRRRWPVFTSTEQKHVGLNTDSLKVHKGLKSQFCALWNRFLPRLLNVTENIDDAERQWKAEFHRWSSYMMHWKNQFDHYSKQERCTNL
OBSERVABLE: SI = IC50 of BChE/IC50 of AChE
Answers are plain numbers.

Would you mind listing SI = IC50 of BChE/IC50 of AChE for each of the following compounds?
1. O=C1c2ccccc2C(=O)N1Cc1ccc(-c2cccs2)cc1
2. O=C1c2ccccc2C(=O)N1Cc1ccc(-c2ccc([N+](=O)[O-])cc2)cc1
3. O=C1c2ccccc2C(=O)N1Cc1ccc(-c2cccc3ccccc23)cc1
4. Cc1ccc2cc(-c3ccc(CN4C(=O)c5ccccc5C4=O)cc3)ccc2n1

1. 61
2. 52
3. 31
4. 35

Quick check: SI = IC50 of BChE/IC50 of AChE of Cc1cc(C)cc(-c2ccc(CN3C(=O)c4ccccc4C3=O)cc2)c1 ? 40
